Assay: Pharmacokinetic profiles by cassette dosing in dog (IV and PO)
Type: in vivo
Conditions: dog, in vivo, male beagle dogs, 1 mg/kg, oral dose
parameter: Cmax (ng/mL)
Only the number, expressed in ng/mL, is required.

Give its Cmax value. Item: CC[C@H]1OC(=O)[C@H](C)C(=O)[C@H](C)[C@@H](O[C@@H]2O[C@H](C)C[C@H](N(C)C)[C@H]2O)C(C)(OCC#Cc2ccc(-c3nnn(C)n3)s2)C[C@@H](C)C(=O)[C@H](C)[C@H]2NC(=O)O[C@@]21C (stereo in doubt) [7B] 720

* * *

Test: Pharmacokinetic profiles by cassette dosing in dog (IV and PO)
Type: in vivo
Settings: dog, in vivo, male beagle dogs, 1 mg/kg, intravenous dose, read-out: T½ (IV) (converted)
parameter: half-life

Give its half-life value. Item: CC[C@H]1OC(=O)[C@H](C)C(=O)[C@H](C)[C@@H](O[C@@H]2O[C@H](C)C[C@H](N(C)C)[C@H]2O)C(C)(OCC#Cc2ccc(-c3nnn(C)n3)s2)C[C@@H](C)C(=O)[C@H](C)[C@H]2NC(=O)O[C@@]21C (stereo in doubt) 9 h
